Field: concentration at 1 h. Provide a value for each of the compounds that follow.
experiment: Drug uptake in rat brain at 10 mg/kg, po after 1 hr; format: ADME, organism-based; parameters: dose 10 mg/kg, route oral; conditions: read-out: Drug uptake
One number for each entry, in ng/g.

>>> df
                                   compound            value_kind  reported_measurement
0  O=C([C@H]1CC2CCC1C2)N1CC(c2nc(-c3cccc(F)c3)no2)C1 (some centres not stated)  concentration at 1 h                    84

Now for the compound whose concentration at 1 h we want.
// O=C(C1CCC(F)(F)CC1)N1CC(c2nc(-c3cccc(Cl)c3)no2)C1 : concentration at 1 h value = 280
